Listing: IC50 of selected molecules
# tested.system: Caspase-1 (Homo sapiens)
# Sequence (P29466 whole entry): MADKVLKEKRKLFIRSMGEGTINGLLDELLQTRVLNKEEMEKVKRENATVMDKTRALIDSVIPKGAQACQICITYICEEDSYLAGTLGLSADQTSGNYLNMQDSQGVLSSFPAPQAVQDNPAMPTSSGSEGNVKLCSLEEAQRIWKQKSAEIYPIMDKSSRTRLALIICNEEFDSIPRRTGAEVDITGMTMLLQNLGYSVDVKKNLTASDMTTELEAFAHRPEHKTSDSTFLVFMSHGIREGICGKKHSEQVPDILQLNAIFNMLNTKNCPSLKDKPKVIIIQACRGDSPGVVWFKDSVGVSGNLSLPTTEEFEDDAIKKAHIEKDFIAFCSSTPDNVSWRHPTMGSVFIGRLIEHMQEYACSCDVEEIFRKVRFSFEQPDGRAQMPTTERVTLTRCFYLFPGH
# method.summary: Inhibition of human recombinant caspase 1
Hi! Could you send only the number? It should be in µM, unit omitted.

COc1ccc(CN2C(=O)C(=C(C#N)C#N)c3cc(S(=O)(=O)N4CCC[C@H]4COc4cccnc4)ccc32)cc1    3.9

Consider the additional molecule presented here.
Inquiry: // fetch IC50 for `N#CC(C#N)=C1C(=O)N(Cc2ccc(Br)cc2)c2ccc(S(=O)(=O)N3CCC[C@H]3COc3cccnc3)cc21` ; system: Caspase-1 (Homo sapiens)
Reply text: 3.4
